Where do the numbers come from? From patent US20220275067A1.

molecular target: human tau oligomers (human, UniProt P10636-6 2-383, limits assumed); assay: cell-based or functional assay
Sequence (P10636 other isoform, or with tags, fused parts or gaps limits assumed): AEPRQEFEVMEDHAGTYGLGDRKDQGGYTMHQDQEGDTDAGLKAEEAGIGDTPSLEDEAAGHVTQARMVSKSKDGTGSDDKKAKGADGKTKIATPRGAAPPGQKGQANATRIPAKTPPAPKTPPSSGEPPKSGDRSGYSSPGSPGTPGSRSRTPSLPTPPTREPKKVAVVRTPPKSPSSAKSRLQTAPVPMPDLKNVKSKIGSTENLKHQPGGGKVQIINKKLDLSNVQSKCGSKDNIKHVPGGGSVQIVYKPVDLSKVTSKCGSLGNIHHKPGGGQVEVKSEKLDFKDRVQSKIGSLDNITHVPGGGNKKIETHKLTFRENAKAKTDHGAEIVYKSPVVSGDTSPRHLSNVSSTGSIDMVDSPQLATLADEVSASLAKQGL
Let's look at some binders and their measured MTT viability of primary neurons with tau oligomers, antibody at 0.33 molar equivs.

Record mouse 9F5 antibody (antibody, mouse IgG1, V domains shown, also called m9F5; murine 9F5) VH: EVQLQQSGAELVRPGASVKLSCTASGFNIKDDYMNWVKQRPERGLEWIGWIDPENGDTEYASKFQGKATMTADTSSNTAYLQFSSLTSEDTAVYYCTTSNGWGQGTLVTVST VL: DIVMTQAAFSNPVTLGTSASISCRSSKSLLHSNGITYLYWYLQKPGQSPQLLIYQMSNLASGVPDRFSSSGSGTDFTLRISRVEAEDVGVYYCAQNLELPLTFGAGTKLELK . Reported MTT viability of primary neurons with tau oligomers, antibody at 0.33 molar equivs: 58 % of control

Record mouse 2D11 antibody (antibody, mouse IgG2a, V domains shown) VH: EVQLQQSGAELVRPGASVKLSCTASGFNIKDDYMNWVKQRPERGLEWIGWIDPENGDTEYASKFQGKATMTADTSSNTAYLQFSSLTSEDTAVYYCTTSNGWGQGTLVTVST VL: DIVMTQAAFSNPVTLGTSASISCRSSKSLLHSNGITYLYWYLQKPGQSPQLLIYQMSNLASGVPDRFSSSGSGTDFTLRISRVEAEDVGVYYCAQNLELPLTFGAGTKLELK . Reported MTT viability of primary neurons with tau oligomers, antibody at 0.33 molar equivs: 59.5 % of control

Record mouse 10C12 antibody (antibody, mouse IgG2a, V domains shown, also called m10C12) VH: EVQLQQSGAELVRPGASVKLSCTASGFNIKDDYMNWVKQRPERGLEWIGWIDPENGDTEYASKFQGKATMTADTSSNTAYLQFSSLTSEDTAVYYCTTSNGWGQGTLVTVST VL: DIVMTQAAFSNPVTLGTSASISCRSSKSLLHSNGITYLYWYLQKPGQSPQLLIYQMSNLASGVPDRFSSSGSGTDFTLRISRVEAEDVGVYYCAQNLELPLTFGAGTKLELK . Reported MTT viability of primary neurons with tau oligomers, antibody at 0.33 molar equivs: 51.3 % of control
